Values from a melting point compilation (Tetko et al.; mined from patent text by program, amines drawn as free bases though some values may be those of a salt)

property: melting point

# annotated cases, reported melting point shown
CCc1cn(C2CC(O)C(CCCO)O2)c(=O)[nH]c1=O (configuration not stated)    113 to 115 °C
COc1cc(S(C)(=O)=O)ccc1-n1nc(C(F)(F)F)cc1-c1ccc(-c2ccco2)cc1    200 °C
O=C1CNC(=S)N1c1ccc2nc(S)sc2c1    > 266 °C
COc1ccc(N2CCN(c3ccc([N+](=O)[O-])nc3)CC2)cc1    186 to 188 °C

The recorded melting point for entry Cc1cc(C)c2oc(S)nc2c1C equals 146 to 147 °C

Sample CSC(=S)Nc1ccc(OCc2nc3ccccc3s2)cc1C ; melting point observed: 133 to 135 °C

response.value for COc1ccc(C#N)c(O)c1 (field: melting point) = 169 to 171 °C

// melting point lookup, compound = C[C@@H](c1ncncc1F)[C@@](Cn1cncn1)(OP(=O)(OCc1c(F)cccc1Cl)OCc1c(F)cccc1Cl)c1ccc(F)cc1F , result: 140 to 141 °C

Query Cc1ccc(C2CCN(C(=O)CCC(=O)c3ccc4c(c3)CCN(C)CC4)CC2)cc1 yields melting point of 111 to 112 °C

For CN(C)C=CC(=O)c1cc(Cl)ccc1Cl the compound record lists melting point as 83 to 85 °C
